B1: LINE1-full (parent)
chain: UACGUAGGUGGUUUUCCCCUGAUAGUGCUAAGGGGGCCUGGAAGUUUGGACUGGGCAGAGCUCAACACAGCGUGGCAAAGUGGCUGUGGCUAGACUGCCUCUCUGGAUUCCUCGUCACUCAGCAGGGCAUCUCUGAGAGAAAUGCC

# Variants of: B1
# assayName: self-cleavage, relative activity (ratio to wild type); higher = more cleavage; in vitro, sequencing; the parent is a self-cleaving ribozyme

variantIdentifier	self-cleavage
G74U A121U	1.02
A24U G126A	1.34
A22G U143C	0.97
C63U U91C	0.18
G10A A30G	1.19
C120A G122U	2.31
U73A U91C	0.19
U47G A65G	0.1
A24G U143A	0.72
U26A C63U	0.37
A6G G93A	0.14
C113G U143C	1.36
A57U A59U	0.07
C61U U62G	0.01
U62G U130C	0.11
G55A G114U	0.22
A24G U52C	0.12
U12G A78G	0
G127A A138U	1.5
A59G U112A	0.09
U15A A138U	1.07
A30G A142U	0.99
C56A G106A	0.08
U23C U108A	1.33
A77G G125A	2.43
G32U A79G	0.97
A50G A140G	0.94

Source: the RNAGym collection of RNA variant scans (doi:10.7554/elife.90254)
